B1: Ventral anterior homeobox 1, residues 102 to 157; numbered along this chain, Q5SQQ9 (parent)
chain: RTRTSFTAEQLYRLEMEFQRCQYVVGRERTELARQLNLSETQVKVWFQNRRTKQKK

Variants of: B1
assay_procedure: abundance fitness (aPCA) (normalised: wild type 0, dead -1); higher = more abundant; growth selection in yeast, the domain comes from the species named
experimental_conditions: Homo sapiens
# if value of abundance fitness reaches -0.6, tag Condition met; if it stays below, tag Condition not met

Would you please look over these solved cases?
Exam item: decide whether the reported abundance fitness for "L36F" is at least -0.6.
Condition not met

Field entry: "L36G"
Condition not met

Please do the same for "R20Y" as well.
Condition met

Next: "V24Q"
Condition met

Here is the next variant: "N37R"
Condition met

Lookup "G26Q"
Condition met

Please do the same for "K53T" as well.
Condition met

Now the variant "Y12A"
Condition met

---
Hi team, for "R51A" , is the recorded abundance fitness at or above -0.6?
Condition met

Same read-out for "V25F" ?
Condition met

And what about the variant "K44D" ?
Condition met
